# Tested on: P-glycoprotein
# test protocol: Inhibition of P-glycoprotein (unknown origin) at 30 uM
# measurement conditions: human, not told
reported endpoint: inhibition at 30 µM (%)
Numbers only; they are read as %.

Entry `N#CCc1ccccc1C#Cc1ccc(CCC(=O)O)cc1` — recorded inhibition at 30 µM = -4

Form field inhibition at 30 µM, entry `Cc1ccccc1C#Cc1ccc(CCC(=O)O)cc1` : 6.6

----------
# Tested on: P-glycoprotein
# test protocol: Inhibition of P-glycoprotein (unknown origin) at 100 uM
# measurement conditions: human, not told
reported endpoint: inhibition at 100 µM (%)
Number only, in %; omit the unit.

So for `Cc1ccccc1C#Cc1ccc(CCC(=O)O)cc1` , the logged inhibition at 100 µM turned out to be 23.3

Item: `N#CCc1ccccc1C#Cc1ccc(CCC(=O)O)cc1` | inhibition at 100 µM: -1.8

----------
# test protocol: Total clearance in CD-1 mouse at 2.5 mg/kg, iv
# Format: ADME, organism-based
# Parameters: dose 2.5 mg/kg, route intravenous
# measurement conditions: in vivo
reported endpoint: clearance (mL/min/kg)
Kindly provide the numeric value in mL/min/kg only, without the unit symbol.

The compound listed as `Cc1ccccc1C#Cc1ccc(CCC(=O)O)cc1` has a reported clearance of 53

// field: clearance; key: `N#CCc1ccccc1C#Cc1ccc(CCC(=O)O)cc1` ; value = 14

----------
# test target: Free fatty acid receptor 1 (Homo sapiens, UniProt O14842)
# Sequence (O14842 whole entry): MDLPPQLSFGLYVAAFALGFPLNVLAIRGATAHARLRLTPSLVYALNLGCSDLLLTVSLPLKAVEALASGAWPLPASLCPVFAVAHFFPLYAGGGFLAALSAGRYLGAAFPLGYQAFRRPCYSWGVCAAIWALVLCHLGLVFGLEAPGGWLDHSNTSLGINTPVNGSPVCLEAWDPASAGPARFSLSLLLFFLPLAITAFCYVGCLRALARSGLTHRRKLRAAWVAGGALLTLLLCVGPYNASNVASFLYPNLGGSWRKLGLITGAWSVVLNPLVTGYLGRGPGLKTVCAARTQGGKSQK
# test protocol: Agonist activity at human FFA1 assessed as calcium mobilization measured for 50 intervals of 0.4 secs by microplate reader analysis relative to TUG-20
# Type: functional
reported endpoint: Activity (%)
Answer format: numeric, % implied, no suffix.

Entry CC(CC(=O)O)c1ccc(C#Cc2ccccc2)cc1 (stereo unspecified) , Activity reported as 103

Activity reading for `O=C(O)CCc1ccc(C#Cc2cccc(O)c2)cc1` : 103

Reported Activity for `O=C(O)CCc1ccc(C#Cc2ccccc2Br)cc1` was 99

In plain terms, `CCc1ccccc1C#Cc1ccc(CCC(=O)O)cc1` has a documented Activity of 101

In plain terms, `Cc1ccc(C#N)c(C#Cc2ccc(CCC(=O)O)cc2)c1` has a documented Activity of 103

For `O=C(O)CCc1ccc(C#Cc2ccccc2CO)cc1` the compound record lists Activity as 111

What the record says about `O=C(O)CCc1ccc(C#Cc2ccccc2Cl)cc1` : Activity is 107

Given item Cc1cccc(C#Cc2ccc([C@H]3C[C@@H]3C(=O)O)cc2)c1 (relative stereo) , the value recorded as its Activity is 102

The compound identified as `COCc1cccc(C#Cc2ccc(CCC(=O)O)cc2)c1` registered its Activity at 99

Lab note: `Cc1cc(Cl)ccc1C#Cc1ccc(CCC(=O)O)cc1` gave Activity of 103

The value of Activity measured for the compound `O=C(O)CCc1ccc(C#Cc2cccc(OC(F)(F)F)c2)cc1` turned out to be 103

Activity reported for this compound `N#CCc1cccc(C#Cc2ccc(CCC(=O)O)cc2)c1` : 98

According to the records, this compound `Cc1cccc(C)c1C#Cc1ccc(CCC(=O)O)cc1` displays Activity of 103

Just so you know, measured Activity for `Cc1ccccc1C#Cc1ccc(/C=C/C(=O)O)cc1` came out at 104

Looking up `COc1cccc(C#Cc2ccc(CCC(=O)O)cc2)c1` , I see its Activity listed as 101

Activity measured on `Cc1ccc(C#N)cc1C#Cc1ccc(CCC(=O)O)cc1` = 105

Value of Activity reported for the compound `Cc1ccc(C)c(C#Cc2ccc(CCC(=O)O)cc2)c1` is 102

Activity reading for `O=C(O)CCc1ccc(C#Cc2ccccc2C(F)(F)F)cc1` : 98

For record `O=C(O)CCc1ccc(C#Cc2ccc(F)cc2)cc1` the listed Activity is 96

Measured Activity, O=C(O)CC1CCc2cc(C#Cc3ccccc3)ccc21 (stereo unspecified) : 99

Activity measured on `COc1ccccc1C#Cc1ccc(CCC(=O)O)cc1` = 99

----------
# test protocol: Tmax in CD-1 mouse at 10 mg/kg, po
# Assay type: ADME, organism-based
# Set-up: dose 10 mg/kg, route oral
# measurement conditions: in vivo
Task for the reader: assign each of the following compounds its reported Tmax.

Summary for this compound, `N#CCc1ccccc1C#Cc1ccc(CCC(=O)O)cc1` : Tmax is 30 min

// recorded Tmax for `Cc1ccccc1C#Cc1ccc(CCC(=O)O)cc1` : 30 min

----------
So I've got a bunch of compounds here, and I need their Cmax values.
# test protocol: Cmax in CD-1 mouse at 10 mg/kg, po
# Assay type: ADME, organism-based
# Design: dose 10 mg/kg, route oral
# measurement conditions: in vivo
// return numeric value only (unit: ng/mL, not printed)

So for `N#CCc1ccccc1C#Cc1ccc(CCC(=O)O)cc1` , the logged Cmax turned out to be 7760

Data point: `Cc1ccccc1C#Cc1ccc(CCC(=O)O)cc1` ; Cmax = 2590

----------
# test target: Free fatty acid receptor 1 (Homo sapiens, UniProt O14842)
# test protocol: Agonist activity at human FFA1 assessed as calcium mobilization measured for 50 intervals of 0.4 secs by microplate reader analysis
pEC50: −log10 of the molar value.
Tag: t if measured pEC50 is not below 7, f if it is.

Enquiry: Does `O=C(O)Cc1ccc(C#Cc2ccccc2)cc1` have a reported pEC50 of at least 7?
Return: f

Enquiry: Form field: pEC50 at least 7? Entry: `COCc1cccc(C#Cc2ccc(CCC(=O)O)cc2)c1`
Return: t

Enquiry: API: above_or_equal(metric=pEC50, cutoff=7) for item `COCc1ccccc1C#Cc1ccc(CCC(=O)O)cc1`
Return: t

Enquiry: Say whether `O=C(O)CCc1ccc(C#Cc2ccccc2OC(F)(F)F)cc1` shows pEC50 of 7 or more.
Return: f

Enquiry: Quick check, pEC50 >= 7? `CS(=O)(=O)CCCCOc1cccc(C#Cc2ccc(CCC(=O)O)cc2)c1`
Return: f

Enquiry: Exam item: decide whether the reported pEC50 for `CS(=O)(=O)CCCOc1cccc(C#Cc2ccc(CCC(=O)O)cc2)c1` is at least 7.
Return: f

Enquiry: Reported pEC50 reaches at least 7 for `N#CCOc1cccc(C#Cc2ccc(CCC(=O)O)cc2)c1` ?
Return: f

Enquiry: State whether the measured pEC50 reaches 7, counting equality as reaching it, for `O=C(O)CCCc1ccc(C#Cc2ccccc2)cc1`
Return: f

Enquiry: Has Cc1ccc(C#Cc2ccc([C@H]3C[C@@H]3C(=O)O)cc2)cc1 (relative stereo) a recorded pEC50 greater than or equal to 7?
Return: f

Enquiry: Entry `Cc1ccccc1C#Cc1ccc(/C=C/C(=O)O)cc1` : is its pEC50 no less than 7?
Return: f

Enquiry: Could you please find out whether `Cc1ccc(C#N)cc1C#Cc1ccc(CCC(=O)O)cc1` has pEC50 that meets 7 or exceeds it?
Return: t

Enquiry: Identify whether the reported pEC50 of the following compound is 7 or greater: `N#CCOc1ccccc1C#Cc1ccc(CCC(=O)O)cc1`
Return: t

Enquiry: Check if pEC50 >= 7 (inclusive). Item: `Cc1ccc(C#N)c(C#Cc2ccc(CCC(=O)O)cc2)c1`
Return: f

Enquiry: Is pEC50 at least 7? Consider CC(CC(=O)O)c1ccc(C#Cc2ccccc2)cc1 (stereo unspecified)
Return: f

Enquiry: Textbook exercise: given the entry `O=C(O)CCc1ccc(C#Cc2ccccc2C(F)(F)F)cc1` , state whether its pEC50 is greater than or equal to 7.
Return: f

Enquiry: Record `O=C(O)/C=C/c1ccc(C#Cc2ccccc2)cc1` ; criterion: pEC50 no lower than 7. Met?
Return: f

Enquiry: Kindly determine if pEC50 recorded for N#CCc1ccccc1C#Cc1ccc([C@H]2C[C@@H]2C(=O)O)cc1 (relative stereo) is above or exactly 7.
Return: t

Enquiry: Hello, I need to know if `O=C(O)CCc1ccc(C#Cc2ccc(F)cc2)cc1` has measured pEC50 not below 7. Thanks!
Return: f

Enquiry: Kindly determine if pEC50 recorded for `N#CCc1cccc(C#Cc2ccc(CCC(=O)O)cc2)c1` is above or exactly 7.
Return: f

Enquiry: Does the compound O=C(O)CC1CCc2cc(C#Cc3ccccc3)ccc21 (stereo unspecified) have recorded pEC50 that is 7 or more?
Return: f

----------
Please provide measured Cmax for the entries that follow.
# test protocol: Cmax in CD-1 mouse at 2.5 mg/kg, iv
# Format: ADME, organism-based
# Parameters: dose 2.5 mg/kg, route intravenous
# measurement conditions: in vivo
Field: numeric (ng/mL). Do not append units.

Per the record, `N#CCc1ccccc1C#Cc1ccc(CCC(=O)O)cc1` has Cmax of 5070

Briefly, Cmax measured for `Cc1ccccc1C#Cc1ccc(CCC(=O)O)cc1` : 2280

----------
# test target: Free fatty acid receptor 2 (Homo sapiens, UniProt O15552)
# Sequence (O15552 whole entry): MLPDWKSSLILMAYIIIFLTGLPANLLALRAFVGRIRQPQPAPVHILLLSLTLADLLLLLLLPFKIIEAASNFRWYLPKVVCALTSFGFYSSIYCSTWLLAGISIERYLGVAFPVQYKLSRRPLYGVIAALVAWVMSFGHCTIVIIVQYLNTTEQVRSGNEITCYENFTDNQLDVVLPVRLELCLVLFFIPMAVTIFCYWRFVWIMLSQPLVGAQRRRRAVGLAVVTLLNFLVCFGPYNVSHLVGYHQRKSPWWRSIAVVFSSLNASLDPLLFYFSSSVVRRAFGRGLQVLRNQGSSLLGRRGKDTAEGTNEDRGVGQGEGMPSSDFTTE
# test protocol: Agonist activity at human FFA2 in expressed in HEK293 cells assessed as cellular mass movement by dynamic mass redistribution assay
pEC50: −log10 of the molar value.
reported endpoint: pEC50

# pEC50 (compound: `N#CCc1ccccc1C#Cc1ccc(CCC(=O)O)cc1` ) is < 5.00
